Field: %Inh. Provide a value for each of the compounds that follow.
- Test system: MLCK;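 further: KINOMEscan kinase panel screen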
- Construct: gene MYLK3
- experimental_conditions: concentration: 1 μM,replicates: in singlicate; n = 1
Could you give me the number in %? Just the number is fine.

Ask | Look at this compound and give its reported %Inh. CC(C(=O)NC1CCN(c2ccnc(Nc3ccc(F)cc3)n2)C1)c1ccc(Cl)cc1 (stereo not drawn)
Reply | 0

Ask | I'd like to know its %Inh. The compound in question is `Cc1ccc(C(=O)Nc2ccc(Oc3ccc4nc(NC(=O)C5CC5)cn4c3)c(F)c2)c(=O)n1-c1ccccc1`
Reply | 0

Ask | # get_value(readout='%Inh', item= `C[C@@H](Oc1cc(-n2cnc3cc(-c4cnn(C)c4)ccc32)sc1C(N)=O)c1ccccc1Cl` )
Reply | 10

Ask | Name the recorded %Inh for `Cn1ccc2ncnc(Oc3ccc(NC(=O)Nc4cccc(C(F)(F)F)c4)c(F)c3)c21` .
Reply | 0

Ask | Can you look up the measured %Inh of `Cc1ccc(Nc2ccnc(Nc3ccc4c(c3)CS(=O)(=O)C4)n2)cc1O.Cl` for me?
Reply | 0

Ask | State the recorded %Inh for this entry: `CS(=O)(=O)Nc1ccc(-c2ccnc3[nH]ccc23)cc1`
Reply | 15

Ask | I would be grateful if you could share the reported %Inh for `Cl.Nc1n[nH]c2cc(-c3ccccn3)ccc12` .
Reply | 0

Ask | Look up %Inh for this compound: COc1ccc(Nc2nccc(N3CCC(NC(=O)c4cccc(C#N)c4)C3)n2)cc1 (stereo not drawn)
Reply | 3

Ask | For `Cc1ccc2c(-c3ccnc(Nc4ccc(C(F)(F)F)cc4)n3)cnn2n1` , what is its reported %Inh?
Reply | 0

Ask | Entry `COc1cc2nccc(Nc3ccc(Oc4ccccc4)cc3)c2cc1OC.Cl` : reported %Inh = ?
Reply | 0

Ask | I would be grateful if you could share the reported %Inh for `O=C1NCCc2[nH]c(-c3ccncc3)cc21` .
Reply | 58

Ask | Which %Inh is listed for `Cc1ccn2nc(-c3ccc(F)cc3)c(-c3ccncc3)c2c1.Cl` ?
Reply | 2

Ask | What measured %Inh goes with `O=C(Nc1cccc(Oc2ccc3nccn3n2)c1)Nc1cccc(C(F)(F)F)c1` ?
Reply | 0

Ask | For the compound `C[C@@H]1CCN(C(=O)N2CCCC2)C[C@@H]1N(C)c1ncnc2[nH]ccc12` , what %Inh is on record?
Reply | 0

Ask | Endpoint output: %Inh of `O=C(Nc1cccc(C(F)(F)F)c1)c1cccc(Oc2ccc3nccn3n2)c1` . Value?
Reply | 0

Ask | // lookup %Inh for Cc1nnc(-c2ccc3occ(-c4ccc(S(C)=O)cc4)c3n2)o1 (stereo not drawn)
Reply | 0

Ask | Quick check: %Inh of `C[C@@H]1CNc2c(sc3ccc4nc(-c5ccncc5)ccc4c23)C(=O)N1` ?
Reply | 54

Ask | # input compound: `FC(F)(F)c1cc(Br)cc(Nc2nccc(-c3cnn4ncccc34)n2)c1` ; wanted: its %Inh
Reply | 32
